target: human LPAR1 (Homo sapiens, UniProt Q92633); construct: expressed in transfected cells; assay: Test Example 1: antagonism against response of LPA-induced increase in intracellular Ca2+ concentration in RH7777 cells stably expressing human LPAR1; assay type: cell-based; conditions: RH7777 cells stably expressing human LPAR1; Fluo-4 fluorescence, FDSS6000; read-out: IC50 value (concentration producing 50% antagonism against response of LPA-induced increase in intracellular Ca2+ concentration) (converted)
Sequence (Q92633 whole entry): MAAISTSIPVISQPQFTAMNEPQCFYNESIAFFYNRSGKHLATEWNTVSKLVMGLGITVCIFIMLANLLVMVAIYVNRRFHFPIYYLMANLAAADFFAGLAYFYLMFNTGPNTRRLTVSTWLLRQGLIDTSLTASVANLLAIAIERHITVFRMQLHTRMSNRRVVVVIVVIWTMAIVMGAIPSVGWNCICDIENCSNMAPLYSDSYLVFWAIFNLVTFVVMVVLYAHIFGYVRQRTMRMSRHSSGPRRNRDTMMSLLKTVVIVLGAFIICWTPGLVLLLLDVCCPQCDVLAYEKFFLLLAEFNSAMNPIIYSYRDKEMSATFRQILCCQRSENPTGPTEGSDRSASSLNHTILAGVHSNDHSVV
Just a reminder that ties go to Criterion not met: only IC50 strictly below 3 nM counts as Criterion met.

| molecule | label |
| --- | --- |
| CCOc1cc([C@@H](C)N(CCC(F)(F)Cc2ccccc2)C(=O)NC2(C(=O)O)CC(F)(F)C2)c(Cl)c(OCC)c1C(C)=O [Example 5-40] | Criterion not met |
| CCOc1cc([C@@H](C)N(CCCCc2ccccc2)C(=O)NC2(C(=O)O)CC2)cc(OCC)c1C1CC1 [Example 1-18] | Criterion met |
| CCOc1cc(C(C)N(CCO[C@@H](C)c2ccccc2)C(=O)NC2(C(=O)O)CC(OC)C2)c(C)c(OCC)c1C1CC1 (stereo partly drawn) [Example 5-203] | Criterion met |
| CCOc1cc([C@@H](C)N(CCCC(F)(F)c2ccccc2)C(=O)NC2(C(=O)O)CC(OC)C2)cc(OCC)c1C(C)O (single isomer, unassigned) [Example 4-62] | Criterion not met |
| CCOc1cc([C@@H](C)N(CCCCc2ccccc2)C(=O)NC2(C(=O)O)CCOCC2)c(Cl)c(OCC)c1C(C)=O [Example 5-51] | Criterion met |
| CCOc1cc([C@@H](C)N(CCCCc2ccccc2)C(=O)NC2(C(=O)O)CC(OCC)C2)cc(OCC)c1C (stereo partly drawn) [Example 1-100] | Criterion not met |
| CCOc1cc(C(C)N(CCCCc2ccccc2)C(=O)NC2CC(CC(=O)O)C2)cc(OCC)c1C (stereo not drawn) [Example 1-148] | Criterion not met |
| CCOc1cc([C@@H](C)N(CCO[C@H](C)c2ccccc2)C(=O)NC2(C(=O)O)CC(F)(F)C2)cc(OCC)c1C1CC1 [Example 4-150] | Criterion met |
| CCOc1cc(C(C)N(CCO[C@@H](C)c2ccccc2)C(=O)NC2(C(=O)OC(C)(C)C)CC2)c(Cl)c(OCC)c1C(C)=O (stereo partly drawn) [Example 6-13] | Criterion not met |
| CCOc1cc(C(C)N(CCOC(C)c2ccccc2)C(=O)NC2(C(=O)O)CCC2)c(Cl)c(OCC)c1C(C)=O (stereo not drawn) [Example 5-195] | Criterion met |
| CCOc1cc(OCC)cc(C(C)N(CCCCc2ccccc2)C(=O)NC2(C(=O)O)Cc3ccccc3C2)c1 (stereo not drawn) [Example 5-11] | Criterion not met |
| CCOc1cc(OCC)cc(C(C)N(CCCCc2ccccc2)C(=O)NC2(C(=O)OC)CCCC2)c1 (stereo not drawn) [Example 6-2] | Criterion not met |
| COc1cc(CN(CCCCc2ccccc2)C(=O)NC(CC(F)(F)F)C(=O)O)cc(OC)c1C (stereo not drawn) [Example 1-6] | Criterion not met |
| CCOc1cc([C@@H](C)N(CCCCc2ccccc2)C(=O)NC2CCC(C(=O)O)C2)cc(OCC)c1C(C)=O (stereo partly drawn) [Example 1-141] | Criterion not met |
| CCOc1cc([C@@H](C)N(CCCC(F)(F)c2ccccc2)C(=O)N[C@]2(C(=O)O)C[C@@H](OCC)C2)cc(OCC)c1C(C)=O [Example 4-69] | Criterion not met |
| CCOc1cc(C(C)N(CCCCc2ccccc2)C(=O)NC2(C(=O)O)CC(F)(F)C2)cc(OCC)c1C(N)=O (stereo not drawn) [Example 1-40] | Criterion not met |
| CCOc1cc([C@@H](C)N(CCCc2ccccc2)C(=O)NC2(C(=O)O)CC(F)(F)C2)cc(OCC)c1C(C)=O [Example 4-35] | Criterion met |
| CCOc1cc(C(C)N(CCCCc2ccccc2)C(=O)NC2(C(=O)O)CC(F)(F)C2)c(Cl)c(OCC)c1C (stereo not drawn) [Example 5-84] | Criterion not met |
| CCOc1cc([C@@H](C)N(CCCc2ccccn2)C(=O)NC2(C(=O)O)CC(F)(F)C2)cc(OCC)c1C [Example 4-27] | Criterion not met |
| CCOc1cc([C@@H](C)N(CCCC(F)(F)c2ccccc2)C(=O)NC2(C(=O)O)CCOCC2)cc(OCC)c1C(C)O (stereo partly drawn) [Example 4-76] | Criterion not met |
| CCOc1cc(C(C)N(CCCCc2ccccc2)C(=O)NC2(C(=O)O)CC(F)(F)C2)ccc1C(C)O (stereo not drawn) [Example 5-9] | Criterion met |
| CCOc1cc([C@@H](C)N(CCCCc2ccccc2)C(=O)NC2(C(=O)O)COC2)cc(OCC)c1C(C)=O [Example 1-149] | Criterion met |
| CCOc1cc(C(C)N(CCOCc2ccccc2)C(=O)NC2(C(=O)O)CC(OC)C2)c(Cl)c(OCC)c1C1CC1 (stereo not drawn) [Example 5-206] | Criterion met |
| CCOc1c(C(C)=O)ccc([C@@H](C)N(CCCC(F)(F)c2ccccc2)C(=O)NC2(C(=O)O)CC2)c1C [Example 4-49] | Criterion not met |
| COc1cc(C(C)N(CCOC(C)c2ccccc2)C(=O)NC2(C(=O)O)CC(OC)C2)cc(OC)c1C1CC1 (stereo not drawn) [Example 5-157] | Criterion not met |
| CCOc1cc(C(C)N(CCOCc2ccccc2)C(=O)NC2(C(=O)O)CCOCC2)c(Cl)c(OCC)c1C1CC1 (stereo not drawn) [Example 5-225] | Criterion met |
| CCOc1cc(C(C)N(CCCCc2ccccc2)C(=O)NC2(c3nc(=O)o[nH]3)CCCC2)cc(OCC)c1C (stereo not drawn) [Example 9-1] | Criterion not met |

====

// reported log10 IC50 per item
target: human LPAR1 (Homo sapiens); construct: expressed in transfected cells; test: Test Example 1: antagonism against response of LPA-induced increase in intracellular Ca2+ concentration in RH7777 cells stably expressing human LPAR1; type: cell-based; conditions: RH7777 cells stably expressing human LPAR1; Fluo-4 fluorescence, FDSS6000; read-out: IC50 value (concentration producing 50% antagonism against response of LPA-induced increase in intracellular Ca2+ concentration) (converted)
reportedEndpoint: log10 IC50 (log10 of the value in nM)

| molecule | log10 IC50 |
| --- | --- |
| CCCc1cc(OCC)cc(C(C)N(CCCCc2ccccc2)C(=O)NC2(C(=O)O)CC(F)(F)C2)c1 (stereo not shown) [Example 5-15] | 0.79 |
| CCNc1cc([C@@H](C)N(CCCCc2ccccc2)C(=O)NC2(C(=O)O)CCC2)cc(OCC)c1C(C)=O [Example 5-110] | 0.25 |
| CCOc1cc([C@@H](C)N(CCCCc2ccccc2)C(=O)NC2(C(=O)O)CC(F)(F)C2)c(Cl)c(OCC)c1C(C)O (single isomer, unassigned) [Example 5-52] | 0.29 |
| CCOc1cc(C(C)N(CCCCc2ccccc2)C(=O)NC2(C(=O)O)CC(F)(F)C2)cc(OCC)c1C#N (stereo not shown) [Example 1-41] | 0.79 |
| COc1cc(C(C)N(CCCCc2ccccc2)C(=O)NC2(C(=O)O)CC(F)(F)C2)cnc1C#N (stereo not shown) [Example 5-90] | 2.16 |
| CCOc1cc([C@@H](C)N(CCCCc2ccccc2)C(=O)NC2(C(=O)O)CNC2)cc(OCC)c1C [Example 1-158] | 2.47 |
| CCOc1cc([C@@H](C)N(CCCC(F)(F)c2ccccc2)C(=O)NC2(C(=O)O)CCOCC2)cc(OCC)c1C(C)=O [Example 4-73] | 0.57 |
| CCOc1cc([C@@H](C)N(CCOCc2ccccc2)C(=O)NC2(C(=O)O)CC(OC)C2)c(C)c(OCC)c1C (stereo partly shown) [Example 5-78] | 0.02 |
| COc1cc(C(C)N(CCOCc2ccccc2)C(=O)NC2(C(=O)O)CC(OC)C2)c(C)c(OC)c1C1CC1 (stereo not shown) [Example 5-155] | 0.04 |
| CCOc1cc([C@@H](C)N(CCOCc2ccccc2)C(=O)NC2(C(=O)O)CC(OCC)C2)cc(OCC)c1C(C)=O (stereo partly shown) [Example 4-109] | 0.20 |
| CCOc1cc([C@@H](C)N(CCO[C@@H](C)c2ccccc2)C(=O)NC2(C(=O)O)CC(F)(F)C2)c(Cl)c(OCC)c1C(C)=O [Example 5-32] | 0.31 |
| CCOc1cc([C@@H](C)N(CCCCc2ccccc2)C(=O)NC2(C(=O)O)CC(N3CCOCC3)C2)cc(OCC)c1C (stereo partly shown) [Example 1-110] | 1.31 |
| CCOc1cc([C@@H](C)N(CCO[C@@H](C)c2ccccc2)C(=O)NC2(C(=O)O)CCOCC2)cc(OCC)c1C(C)O (single isomer, unassigned) [Example 4-143] | 1.68 |
